Tested on: LOX IMVI melanoma
Assay: NCI-60 one-dose screen, 48 h
Conditions: 10 µM unless noted
Procedure: Growth inhibition of the LOX IMVI human tumor cell line is measured as a screen for anti-cancer activity. Cells are grown in 96 well plates and exposed to the test compound for 48 hours. Compounds are tested at a single concentration, which is 10^-5 M for most compounds. The reported endpoint is percent growth (GI% or GIPRCNT), where numbers from 0 - 100% represent growth inhibition, and numbers from -100% - 0 represent cell death. For example, a value of 40 represents 60% growth inhibition. […]
This is part of a sample that, as a whole, favours compounds with a hit. Of some 83,000 tested, about 20% had one in any assay. The source made the active and inactive calls. Rule for the calls: active = growth percent below 10; inactive = the rest.
Select the matching outcome among YES = active, NO = inactive

Example entries begin here.
COMPOUND	LABEL
CC1C(/C=N/Nc2ccccc2)C(C#N)(C#N)C1(C#N)C#N (stereo unspecified)	NO
CCCCCCCCCCCCC[N+](C)(C)Cc1ccccc1	YES

Query: # fetch the recorded call for CC/C=C\C[C@H]1C/C=C2/C(=O)C=C[C@H]2C/C=C\CCCC(=O)O1 here
Response: YES

Query: What outcome does the record of this test show for NC1=C(Cl)C(=O)c2ccc(S(N)(=O)=O)cc2C1=O ?
Response: YES

Query: Check the results log: what was the call for Cc1nn(-c2ccc(F)cc2)c2ncnc(Nc3ccc(NC(=O)Nc4ccc(Cl)c(C(F)(F)F)c4)cc3)c12 ?
Response: NO

Query: Would you mind telling me which call this test gave COc1ccc2[nH]cc(-c3noc(C(=O)c4cn(C)c5ccc(F)cc45)n3)c2c1 ?
Response: NO

Query: Call for entry O=C1C=C(OCC=C(Cl)Cl)C(=O)c2ccccc21 :
Response: NO

Query: What call does the record list for Cc1ccc(C2=NN3C(C2)c2cc(Br)ccc2OC32CCN(Cc3ccccc3)CC2)o1 (stereo unspecified) ?
Response: NO

###

Tested on: KM12 colon
Test: NCI-60 one-dose screen, 48 h
Conditions: 10 µM unless noted
Compounds without any hit were thinned out: in the full panel of roughly 83,000, 20% have a hit. Activity calls are given as the source filed them. The calls were made as follows: active = growth percent below 10; inactive = the rest.
The categories you may choose from are Y = active, N = inactive

COMPOUND	LABEL
COc1ccc(/C=C2\Oc3cc(OCCCCN4CCCC4)ccc3C2=O)cc1	N
COc1nc2c(c(=O)n1C)CN(Cc1ccccc1)C=N2	N
C=CC(=O)Nc1cccc(-c2nc(SC)nc(NCc3ccccc3)c2C#N)c1	N
CCn1c(Cc2ccccc2Nc2c(Cl)cccc2Cl)nnc1SCC(=O)NN1C(=O)/C(=C/c2cc(OC)c(O)c(OC)c2)SC1=S	N

Query: Which outcome was assigned to COc1cc2c(cc1-c1c(C)noc1C)ncc1nc(C3CCCC3)n([C@H](C)COC(F)F)c12 in this test?
Response: N

Query: Answer briefly: the call reported for Cc1ccc2c(c1)C(=O)/C(=C/c1cccc(OCC(=O)c3ccc(Cl)cc3)c1)CS2 in this assay.
Response: N

Query: For this compound, state the assay outcome: CC(=O)c1cc2c(N)c(C(=O)Nc3cccc4ccccc34)sc2nc1C
Response: N

Query: Call for entry C#CCOc1ccc2ncnc(N3CCN(C(=O)CCl)CC3)c2c1 :
Response: N

###

growth overview
Tested on: EKVX NSCLC
Test: NCI-60 one-dose screen, 48 h (100 = growth as untreated, 0 = no growth, -100 = all killed)
Conditions: 10 µM unless noted
The panel holds about 83,000 compounds, 20% with a hit somewhere; the sample as a whole holds those more often. Activity calls are given as the source filed them. How the source made its calls: active means growth percent below 10; inactive means the rest.

Here is how some molecules turned out for growth.
MOLECULE	growth
O=C1/C(=C/C(Cl)=C/c2ccccc2)SC(=S)N1CCc1ccc(O)cc1	11% (inactive)
COc1ccc(CCNc2nc(SC)nc(-c3cccc([N+](=O)[O-])c3)c2C#N)cc1OC	80.5% (inactive)
FC(F)(F)Oc1ccc2nc3nc4ccc[nH]c4cc3c2c1	62.8% (inactive)
COc1cccc(/C=C2\SC(=Nc3ccc(NC(C)=O)cc3)NC2=O)c1OC	103% (inactive)
CCN1CCN(c2nc(NCCNc3ccnc4cc(Cl)ccc34)c3ccccc3n2)CC1	53.3% (inactive)

Query: # query: growth of entry CC1SC(c2ccc(N(C)C)cc2)N(NC(=O)C(O)(c2ccccc2)c2ccccc2)C1=O (stereo not given)
Response: 93.5% (inactive)

Query: Give the measured growth of CC(=O)OC[C@H]1O[C@H](OC(C)=O)[C@H](NC(=O)/C=C/CCl)[C@@H](OC(C)=O)[C@@H]1OC(C)=O .
Response: 94.9% (inactive)

Query: I'd like to know its growth. The molecule in question is Cn1c(=O)[nH]c(=O)c2nc(CCC(=O)NCCC(=O)O)c(=O)[nH]c21
Response: 106% (inactive)

Query: Would you mind telling me what growth value was observed for CCC(=O)c1ccc(Cl)s1 ?
Response: 117% (inactive)

Query: // lookup growth for COc1ccc(-n2nc(C)c3c(Oc4ccc(NC(=O)Nc5c(Cl)cccc5Cl)cc4)ncnc32)cc1
Response: 95.8% (inactive)

###

Parameter growth: see the listing below.
System: NCI-H23 lung
Assay: NCI-60 one-dose screen, 48 h (100 = growth as untreated, 0 = no growth, -100 = all killed)
Conditions: 10 µM unless noted
Compounds without any hit were thinned out: in the full panel of roughly 83,000, 20% have a hit. Activity calls are given as the source filed them. The calls were made as follows: active = growth percent below 10; inactive = the rest.

Past entries and their recorded results:
MOLECULE	TEST RESULT
O=C1/C(=C/N2N=C(c3ccc4ccccc4c3)CC2c2ccccc2O)SC(=S)N1c1cccnc1 (stereo not given)	43.3% (inactive)
COc1cccc(NC(=O)c2sc3nc(C)c(C(C)=O)cc3c2N)c1	65.5% (inactive)
CSc1nc(NCCN2CCOCC2)c(C#N)c(-c2cccc([N+](=O)[O-])c2)n1	97.1% (inactive)
COc1ccc(NC2=C(Sc3nc(C)cc(C)n3)C(=O)N(Cc3ccccc3)C2=O)cc1Cl	84.5% [30 µM] (inactive)
Cc1ccc(/C=C2\SC(=S)N(CC(=O)NCCCN3CCOCC3)C2=O)cc1	99.6% (inactive)
COc1ccc(N=Nc2nccs2)c(O)c1	79.3% (inactive)

Query: What measured growth goes with COc1cc2c(cc1-c1c(C)noc1C)ncc1nc(C3CCCC3)n([C@H](C)COC(F)F)c12 ?
Response: 53.7% (inactive)

Query: Would you mind telling me what growth value was observed for Cc1cc2nc(NC(=O)CN3CCN(CCN4C(=O)c5cccc6cccc(c56)C4=O)CC3)sc2cc1C ?
Response: 89% (inactive)

Query: Quick check: growth of CC(C)(C)c1cc(/C=N\NC(=O)/C=C/C=C/c2ccc3c(c2)OCO3)c(O)c(C(C)(C)C)c1 ?
Response: 90.5% (inactive)

Query: So what does the record say about growth for O=C1OCC2=C1C(c1ccncc1)c1cc3c(cc1N2CCO)OCO3 (stereo not given) ?
Response: 99.6% (inactive)

###

Recorded growth, one value per entry.
System: OVCAR-4 ovarian
Assay: NCI-60 one-dose screen, 48 h (100 = growth as untreated, 0 = no growth, -100 = all killed)
Settings: 10 µM unless noted
Compounds without any hit were thinned out: in the full panel of roughly 83,000, 20% have a hit. Calls of active or inactive are those of the source. Rule for the calls: active = growth percent below 10; inactive = the rest.

Here is how some compounds turned out for growth.
COMPOUND	growth
COc1cc(/C=C/c2cc(O)c3cc(C(C)=O)c(=O)oc3c2)cc2c1O[C@]1(C)CC[C@@H](O)C(C)(C)[C@H]1C2	66.1% (inactive)
COc1ccccc1NS(=O)(=O)c1ccc2oc(SC(C)C)nc2c1	53% (inactive)
CCc1nc(N)nc(N)c1C#CC(C)c1cc(-c2ccnc(C)c2)c2oc(C)nc2c1 (configuration not stated)	51% (inactive)
CC(=O)c1cc2c(N)c(C(=O)Nc3cccc(F)c3C)sc2nc1C	79.8% (inactive)

Query: Any idea what its growth is? The compound is Cn1ccnc1C(=O)/C=C/c1ccccc1
Response: 26.8% (inactive)

Query: Can you share its growth? I mean this compound: O=C1Nc2c(ccc(Cl)c2Cl)/C1=C\c1ccc(C(F)(F)F)cc1
Response: 75.1% (inactive)

Query: Fill blank: measured growth of the compound CC(=O)OC[C@H]1O[C@H](OC(C)=O)[C@H](NC(=O)/C=C/CCl)[C@@H](OC(C)=O)[C@@H]1OC(C)=O is ____.
Response: 68.2% (inactive)

Query: Name the recorded growth for Cn1cc(-c2nonc2-c2c[nH]c3ccccc23)c2cccnc21 .
Response: 74.5% (inactive)

Query: Endpoint output: growth of CC/C=C\C[C@H]1C/C=C2/C(=O)C=C[C@H]2C/C=C\CCCC(=O)O1 . Value?
Response: 29.5% (inactive)

Query: Fill in: growth of Cc1cc(C)nc(SC2=C(Nc3cccc(Cl)c3C)C(=O)N(Cc3ccccc3)C2=O)n1 is ___
Response: 49% [30 µM] (inactive)

Query: // returns reported growth for input CSc1ccc(-c2n[nH]nc2-c2cc3ccccc3s2)cc1
Response: 75.8% (inactive)

Query: Which growth value is on record for O=C(C(=O)c1ccc2c(c1)OCO2)c1ccc2c(c1)OCO2 ?
Response: 99.8% (inactive)
